Target Or Test System: UniProt:P29274
Protocol Summary: Displacement of [3H]ZM241385 from human adenosine A2A receptor expressed in human HeLa cells at 10 uM after 30 mins by beta scintillation counting
Format: cell-based
Label y for high-side inhibition (at or above 20%) and n for low-side inhibition (below it).

Example entries and their recorded answers appear below.
| Smiles Structure | Group Label |
| --- | --- |
| Cc1ccc(-n2cnc3c(N4CCOCC4)nc(-c4ccc(C#N)cc4)nc32)cc1 | n |
| C=CCOc1cccc(-c2nc(O)c3c4ccccc4c(=O)n(CC)n23)c1 | n |
| O=C(Nc1ccco1)c1nc2nc(-c3cccs3)cc(C(F)(F)F)c2s1 | y |

Query: Given the entry COc1cn(-c2ccccc2)nc1C(=O)Nc1ccc(C)cn1 , answer whether its inhibition meets or surpasses 20%.
Response: y

Query: Please tell me: is the compound CCO/C(C)=N/c1c(C#N)ncn1Cc1ccccc1 at or over 20% in terms of inhibition?
Response: n

Query: Entry CCO/C=N/c1c(C#N)ncn1Cc1ccccc1 : is its inhibition no less than 20%?
Response: n

Query: Tell me whether inhibition is at least 20% here: NC(=O)c1nc(-c2ccccc2O)nc2c1ncn2Cc1ccccc1
Response: y

Query: Quick check, inhibition >= 20%? N=C1c2c(C(N)=O)nc(-c3ccccc3O)n2CN1c1ccc(O)cc1
Response: n

----------
Activity for assorted compounds
Target Or Test System: 5-hydroxytryptamine receptor 7 (Homo sapiens)
Protocol Summary: Displacement of [3H]SB269970 from human 5HT7 receptor expressed in HEK293 cells at 10 uM after 60 mins by beta scintillation counting
Type: cell-based
Unit % implied. Number only.

# count of solved cases: 3
| Smiles Structure | Activity / % |
| --- | --- |
| Cc1ccc(-c2nc(C(=O)Nc3ccccn3)c3n2CCCCC3)cc1 | 18 |
| C=CCOc1cccc(-c2nc(O)c3c4ccccc4c(=O)n(CC)n23)c1 | 20 |
| N=C1c2c(C(N)=O)nc(-c3ccccc3O)n2CN1c1ccc(O)cc1 | 11 |

Query: Which Activity reading was recorded for the compound Cc1ccc(-c2ncc3[nH]c(=O)n(Cc4ccccc4)c3n2)cc1 ?
Response: 1

----------
Target Or Test System: Adenosine receptor A2b (Homo sapiens)
Protocol Summary: Displacement of [3H]DPCPX from human adenosine A2B receptor expressed in HEK293 cells at 10 uM after 30 mins by beta scintillation counting
Type: cell-based
Threshold check on inhibition: at or above 4% gives satisfied, strictly below gives not satisfied.

Please review the entries below; each comes with its answer.
| Smiles Structure | Group Label |
| --- | --- |
| N=C1c2c(C(N)=O)nc(-c3ccccc3O)n2CN1c1ccc(O)cc1 | satisfied |
| COc1ccc(-c2nc(N3CCOCC3)c3ncn(-c4ccc(F)cc4)c3n2)cc1 | not satisfied |
| Cc1ccc(-n2cnc3c(N4CCSCC4)nc(-c4ccc(C#N)cc4)nc32)cc1 | satisfied |
| C=CCOc1cccc(-c2nc(O)c3c4ccccc4c(=O)n(CC)n23)c1 | satisfied |
| CCO/C=N/c1c(C#N)ncn1Cc1ccccc1 | not satisfied |

Query: Hi team, for CCO/C(C)=N/c1c(C#N)ncn1Cc1ccccc1 , is the recorded inhibition at or above 4%?
Response: satisfied

Query: Form field: inhibition at least 4%? Entry: N#Cc1ccc(-c2nc(N3CCCCC3)c3ncn(-c4ccc(F)cc4)c3n2)cc1
Response: satisfied

Query: Does the compound NC(=O)c1nc(-c2cccc(O)c2)nc2c1ncn2-c1ccccc1 have recorded inhibition that is 4% or more?
Response: not satisfied

Query: Quick check, inhibition >= 4%? Cc1ccc(-c2ncc3[nH]c(=O)n(Cc4ccccc4)c3n2)cc1
Response: not satisfied

Query: Quick check, inhibition >= 4%? NC(=O)c1nc(-c2ccccc2O)nc2c1ncn2Cc1ccccc1
Response: satisfied

Query: Quick check, inhibition >= 4%? Cc1ccc(-n2cnc3c(N4CCOCC4)nc(-c4ccc(C#N)cc4)nc32)cc1
Response: satisfied

Query: Identify whether the reported inhibition of the following compound is 4% or greater: Cc1ccc(-c2nc(C(=O)Nc3ccccn3)c3n2CCCCC3)cc1
Response: satisfied

----------
Target Or Test System: UniProtKB P35367
Sequence (P35367 whole entry): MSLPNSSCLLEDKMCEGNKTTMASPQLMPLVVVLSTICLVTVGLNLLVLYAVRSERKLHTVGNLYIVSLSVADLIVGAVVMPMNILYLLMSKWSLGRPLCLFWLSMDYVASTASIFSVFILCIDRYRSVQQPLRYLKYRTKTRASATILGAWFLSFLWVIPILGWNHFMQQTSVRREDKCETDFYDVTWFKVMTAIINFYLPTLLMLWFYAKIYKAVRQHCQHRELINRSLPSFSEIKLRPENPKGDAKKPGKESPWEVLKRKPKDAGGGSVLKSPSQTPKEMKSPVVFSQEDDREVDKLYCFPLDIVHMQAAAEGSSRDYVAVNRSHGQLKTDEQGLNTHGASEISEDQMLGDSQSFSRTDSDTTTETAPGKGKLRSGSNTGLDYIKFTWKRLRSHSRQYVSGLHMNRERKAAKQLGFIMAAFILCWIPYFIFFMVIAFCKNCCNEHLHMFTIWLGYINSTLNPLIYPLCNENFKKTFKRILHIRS
Protocol Summary: Displacement of [3H]pyrilamine from human histamine H1 receptor expressed in CHO cells at 10 uM after 60 mins by beta scintillation counting
Format: cell-based
Activity: recorded values
Give your result in % as a bare value.

Solved cases below.
| Smiles Structure | Target Or Test System | Reported Value |
| --- | --- | --- |
| Cc1ccc(-c2ncc3[nH]c(=O)n(Cc4ccccc4)c3n2)cc1 | UniProtKB P35367 | 17 |
| Cc1ccc(-c2nc(C(=O)Nc3ccccn3)c3n2CCCCC3)cc1 | UniProtKB P35367 | 39 |
| C=CCOc1cccc(-c2nc(O)c3c4ccccc4c(=O)n(CC)n23)c1 | UniProtKB P35367 | 42 |

// next entry
Query: Look up Activity: N=C1c2c(C(N)=O)nc(-c3ccccc3O)n2CN1c1ccc(O)cc1
Response: 17

----------
Target Or Test System: Adenosine receptor A1 (Homo sapiens)
Protocol Summary: Displacement of [3H]DPCPX from human adenosine A1 receptor expressed in CHO cells at 10 uM after 60 mins by beta scintillation counting
Type: cell-based
Measure Name: inhibition (%)
The reply should contain only the number, in %.

Use the examples below as a reference point.
| Molecule | Target Or Test System | Measure Name | Reported Value |
| --- | --- | --- | --- |
| CCO/C(C)=N/c1c(C#N)ncn1Cc1ccccc1 | Adenosine receptor A1 (Homo sapiens) | inhibition | 1.2 |
| COc1cn(-c2ccccc2)nc1C(=O)Nc1ccc(C)cn1 | Adenosine receptor A1 (Homo sapiens) | inhibition | 51.9 |
| Cc1cc(NC(=O)C2=C3N=C(c4cccs4)C=C(C(F)(F)F)N3NC2)no1 | Adenosine receptor A1 (Homo sapiens) | inhibition | 79 |

The record that follows has no inhibition shown yet.
Query: Test system Adenosine receptor A1 (Homo sapiens); read-out inhibition; what value for Cc1ccc(-c2nc(C(=O)Nc3ccccn3)c3n2CCCCC3)cc1 ?
Response: 38.9

----------
Target Or Test System: Adenosine receptor A3 (Homo sapiens)
Protocol Summary: Displacement of [3H]NECA from human adenosine A3 receptor expressed in human HeLa cells at 10 uM after 180 mins by beta scintillation counting
Type: cell-based
Measure Name: inhibition (%)
// units = %; emit number, no label

Below: 5 molecules and their reported inhibition.
| Smiles Structure | Target Or Test System | Reported Value |
| --- | --- | --- |
| Cc1ccc(-n2cnc3c(N4CCOCC4)nc(-c4ccc(C#N)cc4)nc32)cc1 | Adenosine receptor A3 (Homo sapiens) | 3 |
| C=CCOc1cccc(-c2nc(O)c3c4ccccc4c(=O)n(CC)n23)c1 | Adenosine receptor A3 (Homo sapiens) | 39 |
| COc1ccc(-c2nc(N3CCOCC3)c3ncn(-c4ccc(F)cc4)c3n2)cc1 | Adenosine receptor A3 (Homo sapiens) | 31.8 |
| CCO/C(C)=N/c1c(C#N)ncn1Cc1ccccc1 | Adenosine receptor A3 (Homo sapiens) | 28 |
| N=C1c2c(C(N)=O)nc(-c3ccccc3O)n2CN1c1ccc(O)cc1 | Adenosine receptor A3 (Homo sapiens) | 26.1 |

Query: Please give the measured inhibition for this molecule: NC(=O)c1nc(-c2ccccc2O)nc2c1ncn2Cc1ccccc1
Response: 10.9

Query: If you can, please state the reported inhibition value of CCO/C=N/c1c(C#N)ncn1Cc1ccccc1 .
Response: 1.9

Query: // lookup inhibition for Cc1ccc(-c2ncc3[nH]c(=O)n(Cc4ccccc4)c3n2)cc1
Response: 71.1

Query: Quick check: inhibition of NC(=O)c1nc(-c2cccc(O)c2)nc2c1ncn2-c1ccccc1 ?
Response: 23.1

Query: What value of inhibition has been reported for the following molecule? N#Cc1ccc(-c2nc(N3CCCCC3)c3ncn(-c4ccc(F)cc4)c3n2)cc1
Response: 15.1

Query: Which inhibition is listed for Cc1ccc(-n2cnc3c(N4CCSCC4)nc(-c4ccc(C#N)cc4)nc32)cc1 ?
Response: 1.9

----------
Target Or Test System: Adenosine receptor A2a (Homo sapiens, UniProt P29274)
Sequence (P29274 whole entry): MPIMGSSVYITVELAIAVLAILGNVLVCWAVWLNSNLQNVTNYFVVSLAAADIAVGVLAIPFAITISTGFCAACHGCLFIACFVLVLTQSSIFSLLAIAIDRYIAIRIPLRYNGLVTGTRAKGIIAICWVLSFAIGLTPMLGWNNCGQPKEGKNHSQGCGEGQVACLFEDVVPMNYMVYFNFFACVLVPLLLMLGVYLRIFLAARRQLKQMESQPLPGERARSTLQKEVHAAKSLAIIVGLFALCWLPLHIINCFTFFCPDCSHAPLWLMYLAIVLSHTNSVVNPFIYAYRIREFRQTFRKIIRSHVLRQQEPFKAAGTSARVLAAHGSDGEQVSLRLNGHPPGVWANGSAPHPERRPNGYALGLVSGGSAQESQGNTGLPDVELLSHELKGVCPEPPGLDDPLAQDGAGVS
Protocol Summary: Displacement of [3H]ZM241385 from human adenosine A2A receptor expressed in human HeLa cells at 10 uM after 30 mins by beta scintillation counting
Format: cell-based
Threshold rule: inhibition greater than or equal to 10% is T; below that, F.

| Molecule | Group Label |
| --- | --- |
| COc1ccc(-c2nc(N3CCOCC3)c3ncn(-c4ccc(F)cc4)c3n2)cc1 | F |

Query: Check if inhibition >= 10% (inclusive). Item: Cc1ccc(-c2nc(C(=O)Nc3ccccn3)c3n2CCCCC3)cc1
Response: T

Query: Form field: inhibition at least 10%? Entry: OC1=NCC2C(C=NN2Cc2ccccc2)C(c2ccc(Br)cc2)S1 (stereo not given)
Response: F

Query: // inclusive: inhibition at least 10%? input: Cc1cc(NC(=O)C2=C3N=C(c4cccs4)C=C(C(F)(F)F)N3NC2)no1
Response: T

These data points were gathered from ChEMBL document CHEMBL1158568.
